# SYSTEM: MASP-2 CCP2-SP (Homo sapiens (Human), UniProt O00187)
# Sequence (O00187 445-686): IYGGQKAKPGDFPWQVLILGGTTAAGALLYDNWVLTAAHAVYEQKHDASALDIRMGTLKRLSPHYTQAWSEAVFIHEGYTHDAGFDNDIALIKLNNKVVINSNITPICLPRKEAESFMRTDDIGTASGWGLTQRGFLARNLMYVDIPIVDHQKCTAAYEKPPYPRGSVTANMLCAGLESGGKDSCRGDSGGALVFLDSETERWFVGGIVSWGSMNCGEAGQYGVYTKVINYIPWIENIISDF
# Sequence (O00187 364-432 partner): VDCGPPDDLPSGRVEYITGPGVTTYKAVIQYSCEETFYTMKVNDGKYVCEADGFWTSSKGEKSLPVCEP
# ASSAY REMARKS: MASP-2 co-crystallization, X-ray crystallography and structure analysis (H-bonds, van der Waals contacts)
# CONDITIONS USED: Table A1 (H-Bonds); SER 628 OG
Counter-ions that a name gives are not always drawn.
Classify as follows. Reported H-bond distance to MASP-2 SER 628 atom OG greater than or equal to 3: MET. Reported H-bond distance to MASP-2 SER 628 atom OG below: NOT MET.

Consider the worked cases shown below.
COMPOUND	GROUP
C[C@H](NC(=O)c1cc(-c2ccccc2)c[nH]1)C(=O)NCc1ccc(C(=N)N)cc1	MET
C[C@H](NC(=O)[C@H](N)CCc1cc(Cl)cc(Cl)c1)C(=O)NCc1ccc(C(=N)N)cc1	MET
N=C(N)c1ccc(CNC(=O)[C@@H]2CCN2C(=O)[C@H](NCC(=O)O)C2Cc3ccccc3C2)cc1	NOT MET
C[C@H](NC(=O)[C@H](N)C1Cc2ccccc2C1)C(=O)NCc1ccc2c(N)nccc2c1 [compound 1088, Dihydrochloride]	MET

Next up:
query: Check if H-bond distance to MASP-2 SER 628 atom OG >= 3 (inclusive). Item: N=C(N)c1ccc(CNC(=O)[C@@H]2CCN2C(=O)[C@H](NCC(=O)O)C2CCCCC2)cc1 [melagatran, reference compound]
result: NOT MET

----------
# SYSTEM: MASP-2 CCP2-SP (Homo sapiens (Human))
# ASSAY REMARKS: MASP-2 co-crystallization, X-ray crystallography and structure analysis (H-bonds, van der Waals contacts)
# CONDITIONS USED: Table A6-2 pharmacophore angle
ASSAY METRIC: a(O2, N2, CA2)
In your answer, state the number alone without any accompanying words.

query: What does the record list as a(O2, N2, CA2) for C[C@H](NC(=O)[C@H]1C[C@@H](c2ccccc2)CCN1)C(=O)NCc1cc(Cl)ccc1O.Cl [1078_16] ?
result: 154.31

query: What does the record list as a(O2, N2, CA2) for Cc1nc(N)ccc1CNC(=O)C(C)NC(=O)C1CC(c2cccc3ccccc23)CCN1.Cl.Cl (centres unmarked) [1297_3] ?
result: 156.50

----------
# SYSTEM: MASP-2 CCP2-SP (Homo sapiens (Human))
# ASSAY REMARKS: MASP-2 co-crystallization, X-ray crystallography and structure analysis (H-bonds, van der Waals contacts)
# Design: unit not given beside the values
# CONDITIONS USED: Table A5-2 pharmacophore distance, S3/S4 region
Where a name gives a salt, the structure may show the parent alone.
This section presents molecules with their documented d(N2,C6) values.
In your answer, state the number alone without any accompanying words.

Some solved entries appear below for comparison.
MOLECULE	ASSAY METRIC	OBSERVED
C[C@H](NC(=O)[C@H](N)CCc1cc(Cl)cc(Cl)c1)C(=O)NCc1ccc(C(=N)N)cc1	d(N2,C6)	8.27
Cc1nc(N)ccc1CNC(=O)[C@H](C)NC(=O)[C@H]1C[C@H](Cc2cc(Cl)cc(Cl)c2)CN1 [compound 1435, Dihydrochloride]	d(N2,C6)	7.51
Cc1cccc([C@H]2CN[C@@H](C(=O)N[C@@H](C)C(=O)NCc3ccc(N)nc3C)C2)c1 [compound 1257, Dihydrochloride]	d(N2,C6)	6.64

Continue with the molecule presented below.
query: What does the record list as d(N2,C6) for Cc1nc(N)ccc1CNC(=O)[C@H](C)NC(=O)[C@H]1C[C@H](Cc2ccccc2Br)CN1.O=C(O)C(F)(F)F.O=C(O)C(F)(F)F ?
result: 5.56
